Cited source for all entries: paper PMC8881077

SYSTEM UNDER TEST: ratAChE (Rattus norvegicus)
Construct: AChE from 5% rat cortex homogenate or human erythrocytes (Sigma Co.); from tissue; host or cells: 5% rat cortex homogenate
Sequence (P37136 32-614): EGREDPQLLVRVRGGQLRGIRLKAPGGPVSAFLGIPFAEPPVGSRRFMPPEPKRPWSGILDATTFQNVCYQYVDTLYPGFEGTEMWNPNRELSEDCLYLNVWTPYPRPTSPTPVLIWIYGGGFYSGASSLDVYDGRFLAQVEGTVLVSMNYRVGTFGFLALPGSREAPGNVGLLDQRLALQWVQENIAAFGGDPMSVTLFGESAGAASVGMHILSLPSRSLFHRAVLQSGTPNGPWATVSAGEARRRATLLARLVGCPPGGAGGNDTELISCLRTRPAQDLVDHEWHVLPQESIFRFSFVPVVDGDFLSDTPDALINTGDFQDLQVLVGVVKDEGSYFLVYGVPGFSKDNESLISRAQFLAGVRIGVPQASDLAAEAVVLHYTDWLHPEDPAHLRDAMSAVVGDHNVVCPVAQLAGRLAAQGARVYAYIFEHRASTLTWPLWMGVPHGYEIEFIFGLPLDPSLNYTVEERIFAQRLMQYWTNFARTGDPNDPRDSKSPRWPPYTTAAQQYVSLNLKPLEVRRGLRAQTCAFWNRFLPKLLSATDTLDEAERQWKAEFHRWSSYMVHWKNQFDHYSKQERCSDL
PROCEDURE TEXT: biochemical
MEASUREMENT SETUP: Selectivity Index = IC50 (BuChE)/IC50 (AChE), rat enzymes
SI values for the compounds below.
Please reply with the value in numeric form only.

Reference set (2 entries):
[
  {
    "COMPOUND": "O=c1cc(-c2ccc(OCCCN3CCC(Cc4ccccc4)CC3)cc2)oc2cc(OCCCN3CCC(Cc4ccccc4)CC3)cc(O)c12 [Compound 10c]",
    "SYSTEM UNDER TEST": "ratAChE (Rattus norvegicus)",
    "ASSAY METRIC": "SI",
    "REPORTED": 2.5
  },
  {
    "COMPOUND": "O=c1cc(-c2ccc(OCCCCCCN3CCC(Cc4ccccc4)CC3)cc2)oc2cc(OCCCCCCN3CCC(Cc4ccccc4)CC3)cc(O)c12 [Compound 10s]",
    "SYSTEM UNDER TEST": "ratAChE (Rattus norvegicus)",
    "ASSAY METRIC": "SI",
    "REPORTED": 6.5
  }
]

Below: the item to evaluate.
State its SI on ratAChE (Rattus norvegicus): O=C1CC(c2ccc(OCCCN3CCC(Cc4ccccc4)CC3)cc2)Oc2cc(OCCCN3CCC(Cc4ccccc4)CC3)cc(O)c21 (stereo not drawn)
2.9
